Assay: Ex vivo biodistribution in mice with MOLP8 tumor xenografts
Design: species or system NSG mice
Details: both sexes, NSG, mouse, tumor/muscle, 80 uCi, total radioactivity, 120 min p.i.; MOLP8 xenograft mice; read-out: Tumor/muscle ratio
attribute measured: tissue to tissue ratio at 2 h
I only need the number, thanks.

The reported value for CC[C@H](C)[C@@H]1NC(=O)[C@@H]2CCCN2C(=O)[C@H](Cc2ccccc2)NC(=O)[C@H](CC(=O)O)NC(=O)[C@H](C)NC(=O)[C@@H]2CSCc3cc(cc(c3)CSC[C@H](NC(=O)[C@H](C)NC(=O)CCOCCOCCOCCNC(=O)CN3CCN(CC(=O)O)CCN(CC(=O)O)CC3)C(=O)N[C@@H](C(C)C)C(=O)N3CCC[C@H]3C(=O)N2)CSC[C@@H](C(N)=O)NC(=O)[C@H](Cc2ccc(O)cc2)NC(=O)[C@H](Cc2c[nH]c3ccccc23)NC1=O [[^68Ga]Ga‐AJ206, metal not drawn] in terms of tissue to tissue ratio at 2 h is 27.4
